Tested on: biotinyl-Met-oxazolone
Assay: self-aminoacylation, catalytic enhancement (BMO) (fold over background); higher = more active; k-Seq, kA / k0A0; sequences stand for … in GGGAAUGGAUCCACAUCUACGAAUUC…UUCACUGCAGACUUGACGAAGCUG
Fewer inactive variants are shown than the library holds.
# self-aminoacylation values compiled below

{"sequence.chain": "AUUACCCGGGUCUUCGAGUGA [Fam2.1 aminoacylation ribozyme variant]", "self-aminoacylation": 7.15}
{"sequence.chain": "AUUCAACUAGGUUAUCGGGUG [Fam2.2 aminoacylation ribozyme variant]", "self-aminoacylation": 3.29}
{"sequence.chain": "CCAGACUUCAAGCAAUCGGUU [Fam1B.1 aminoacylation ribozyme variant]", "self-aminoacylation": 2.04}
{"sequence.chain": "AUUCACCUAGGACAUCCGGUG [Fam2.2 aminoacylation ribozyme variant]", "self-aminoacylation": 5.98}
{"sequence.chain": "AUUACCCUGCUCAUCGAGUGG [Fam2.1 aminoacylation ribozyme variant]", "self-aminoacylation": 1}
{"sequence.chain": "AUUCACCUAGUCCAUCGGGUG [Fam2.2 aminoacylation ribozyme variant]", "self-aminoacylation": 6.16}
{"sequence.chain": "CCUCACUUCAAGCAGUCGGUC [Fam1B.1 aminoacylation ribozyme variant]", "self-aminoacylation": 0.646}
{"sequence.chain": "CUACUACAAACAAUCGUUCUG [Fam1A.1 aminoacylation ribozyme variant]", "self-aminoacylation": 0.468}
{"sequence.chain": "AUAACCCUGGUCAUCGAAUGA [Fam2.1 aminoacylation ribozyme variant]", "self-aminoacylation": 1.07}
{"sequence.chain": "AUUCAGCUAGGUCAUCGGGUG [Fam2.2 aminoacylation ribozyme variant]", "self-aminoacylation": 4.92}
{"sequence.chain": "AUACUUCAAACAAUCGUUCUG [Fam1A.1 aminoacylation ribozyme variant]", "self-aminoacylation": 0.81}
{"sequence.chain": "AUUACCCUGUUCAUCGCGUGA [Fam2.1 aminoacylation ribozyme variant]", "self-aminoacylation": 23.5}
{"sequence.chain": "CCACACUUCAAGCAAUCGGUU [Fam1B.1 aminoacylation ribozyme variant]", "self-aminoacylation": 1.36}
{"sequence.chain": "CCACUACAAACAAUCGGUCUG [Fam1A.1 aminoacylation ribozyme variant]", "self-aminoacylation": 0.764}
{"sequence.chain": "AUUCACCUAAGCCAUCGGGUG [Fam2.2 aminoacylation ribozyme variant]", "self-aminoacylation": 3}
{"sequence.chain": "AUUCACCUAGGUCAAGGGGUG [Fam2.2 aminoacylation ribozyme variant]", "self-aminoacylation": 1.43}
{"sequence.chain": "AUUACCCUUGUUAUCGAGUGA [Fam2.1 aminoacylation ribozyme variant]", "self-aminoacylation": 15.9}
{"sequence.chain": "AAGUUUGUUAAUAGACGCAAG [Fam3.1 aminoacylation ribozyme variant]", "self-aminoacylation": 0.587}
{"sequence.chain": "CUACUUCAAACAACCGGUCGG [Fam1A.1 aminoacylation ribozyme variant]", "self-aminoacylation": 1.05}
{"sequence.chain": "AUUCACCUCGGUCAACGGGUG [Fam2.2 aminoacylation ribozyme variant]", "self-aminoacylation": 3.98}
{"sequence.chain": "AUUCACGUAGGUCAUGGGGUG [Fam2.2 aminoacylation ribozyme variant]", "self-aminoacylation": 3.45}
{"sequence.chain": "AUGCACCCAGGUCAUCGGGUG [Fam2.2 aminoacylation ribozyme variant]", "self-aminoacylation": 3.42}
{"sequence.chain": "CUACUUCAAACAAGCGGUUUG [Fam1A.1 aminoacylation ribozyme variant]", "self-aminoacylation": 0.637}
{"sequence.chain": "CCACACUCCAAGCAGUCGGUC [Fam1B.1 aminoacylation ribozyme variant]", "self-aminoacylation": 1.04}
{"sequence.chain": "CCACACUCCAAGCAAACGGUC [Fam1B.1 aminoacylation ribozyme variant]", "self-aminoacylation": 0.934}
{"sequence.chain": "CUACUUCUAACAGUCGGUCUG [Fam1A.1 aminoacylation ribozyme variant]", "self-aminoacylation": 0.672}
{"sequence.chain": "CUACUUCAAACAGUCUGUCUG [Fam1A.1 aminoacylation ribozyme variant]", "self-aminoacylation": 0.515}
{"sequence.chain": "GUUACCCUGGUCAUCGGGUGA [Fam2.1 aminoacylation ribozyme variant]", "self-aminoacylation": 89.7}
